Reference for the values: the antibiotic and cytotoxicity screens of Wong et al. (2023)

tested on: HSkMC (human skeletal muscle cells); assay: cytotoxicity call (relative viability < 0.9); conditions: 10 µM
Screen size: about 39,000 compounds; about 1,500 (3.8%) were called active. The full list was thinned out, with actives kept by preference.
Choose the fitting class; nothing outside active, inactive is accepted.

Here are 4 molecules together with their reported answers.
Enquiry: # outcome recorded in this test, key = "O=C(Nc1ccc(Cl)cc1)Nc1ccc(Cl)c(Cl)c1"
Return: active

Enquiry: Follow-up item: "CCC(=O)Nc1ccc(Cl)cc1"
Return: inactive

Enquiry: Check "O=C(N[C@@H](c1ccc(-c2ccccc2)cc1)c1cnccn1)C1CCN(Cc2cccc(C(F)(F)F)c2)CC1" too.
Return: inactive

Enquiry: Input "O=C(NC1(c2ccccc2)CC1)c1c(CN2CCC(N3CCCCC3)CC2)c(-c2cccc(C(F)(F)F)c2)nc2cc(Br)ccc12"
Return: active

Shift focus to the following entry.
Enquiry: # outcome recorded in this test, key = "CC(C)C(=O)Nc1cccc(Cl)c1"
Return: inactive
